src = patent US20240246946A1

- MEASURED_TARGET: full length mouse TREX1 (Mus musculus)
- Construct: N-terminally His-Tev tagged full length mouse TREX1; made in house; host or cells: E. coli
- ASSAY: mTREX1 Biochemical Assay (fluorescence, dsDNA substrate degradation)
- PARTICULARS: biochemical, read-out: mTREX1 IC50
pIC50: −log10 of the molar value.
MEASURED_QUANTITY: pIC50

1) Cc1ccc(C(c2ccccc2C#N)C(C)c2nc(C(=O)Nc3cnoc3)c(O)c(=O)n2C)cn1 (single isomer, unassigned) [Example 5 D2E1]: < 8.00
2) Cc1nn(C)c(C)c1C(c1ccccc1C#N)C(C)c1nc(C(=O)Nc2cnoc2)c(O)c(=O)n1C (single isomer, unassigned) [Example 78 D1E2]: < 8.00
3) CC(c1nc(C(=O)Nc2cnoc2)c(O)c(=O)n1C)C(c1cnn(CC(C)(C)O)c1)c1ccccc1Cl (single isomer, unassigned) [Example 86 D2E1]: < 8.00
4) CC(=O)N(C)c1nn(C)cc1C(c1ccccc1C#N)C(C)c1nc(C(=O)Nc2cnoc2)c(O)c(=O)n1C (single isomer, unassigned) [Example 153 D1E2]: < 8.00
5) Cc1nc(C)c(C(c2ccccc2C#N)C(C)c2nc(C(=O)Nc3cnoc3)c(O)c(=O)n2C)nc1C (single isomer, unassigned) [Example 122 D1E2]: < 8.00
6) Cc1cn(C(c2ccccc2Cl)C(C)c2nc(C(=O)Nc3cnoc3)c(O)c(=O)n2C)cn1 (single isomer, unassigned) [Example 142 D1E2]: 8.00 to 9.00
7) COCCn1cc(C(c2cc(F)ccc2C#N)C(C)c2nc(C(=O)Nc3cnoc3)c(O)c(=O)n2C)cn1 (single isomer, unassigned) [Example 18 D1E2]: 8.00 to 9.00
8) Cc1cn(C)nc1C(c1ccccc1C#N)C(C)c1nc(C(=O)Nc2cnoc2)c(O)c(=O)n1C (single isomer, unassigned) [Example 64 D1E1]: < 8.00

Q. Return value of pIC50 for input Cc1nn(C)cc1C(c1ccccc1C#N)C(c1nc(C(=O)Nc2cnoc2)c(O)c(=O)n1C)C(F)(F)F (single isomer, unassigned) [Example 41 D1E1] , no commentary.
A. < 8.00

Q. Return value of pIC50 for input CC(c1nc(C(=O)Nc2cnoc2)c(O)c(=O)n1C)C(c1cnn(CCN2CCN(C(=O)OC(C)(C)C)CC2)c1)c1ccccc1C#N (single isomer, unassigned) [Example 21 D1E2] , no commentary.
A. < 8.00

Q. Return value of pIC50 for input CC(c1nc(C(=O)Nc2cnoc2)c(O)c(=O)n1C)C(c1nnn(C)n1)c1ccccc1C#N (single isomer, unassigned) [Example 79 D1E1] , no commentary.
A. < 8.00

Q. Return value of pIC50 for input CCn1cc(C(c2cc(F)ccc2C#N)C(C)c2nc(C(=O)Nc3cnoc3)c(O)c(=O)n2C)cn1 (single isomer, unassigned) [Example 17 D1E2] , no commentary.
A. > 9.00

Q. Return value of pIC50 for input Cc1cnn(C(c2ccccc2Cl)C(C)c2nc(C(=O)Nc3cnoc3)c(O)c(=O)n2C)c1 (single isomer, unassigned) [Example 133 D1E2] , no commentary.
A. 8.00 to 9.00

Q. Return value of pIC50 for input CCn1cc(C(c2cc(F)c(F)cc2Cl)C(C)c2nc(C(=O)Nc3cnoc3)c(O)c(=O)n2C)cn1 (single isomer, unassigned) [Example 72 D1E1] , no commentary.
A. 8.00 to 9.00

====

- MEASURED_TARGET: full length mouse TREX1 (Mus musculus, UniProt Q91XB0)
- Construct: N-terminally His-Tev tagged full length mouse TREX1; made in house; host or cells: E. coli
- Sequence (Q91XB0 1-314): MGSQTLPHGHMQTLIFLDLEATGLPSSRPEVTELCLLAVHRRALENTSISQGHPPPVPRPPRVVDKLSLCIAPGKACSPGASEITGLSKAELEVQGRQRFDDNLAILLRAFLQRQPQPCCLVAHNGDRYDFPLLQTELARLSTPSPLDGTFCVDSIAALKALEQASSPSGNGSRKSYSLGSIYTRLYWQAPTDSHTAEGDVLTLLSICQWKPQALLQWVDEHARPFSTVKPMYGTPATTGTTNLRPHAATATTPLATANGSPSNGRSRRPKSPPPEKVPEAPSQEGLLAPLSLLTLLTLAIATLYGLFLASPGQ
- ASSAY: mTREX1 Biochemical Assay (fluorescence, dsDNA substrate degradation)
- PARTICULARS: biochemical, read-out: mTREX1 IC50
MEASURED_QUANTITY: IC50

1) CC(c1nc(C(=O)Nc2cnoc2)c(O)c(=O)n1C)C(c1cn[nH]c1)c1ccccc1C#N (single isomer, unassigned) [Example 12 D1E2]: > 10 nM
2) Cc1nc(C)c(C(c2ccccc2C#N)C(C)c2nc(C(=O)Nc3cnoc3)c(O)c(=O)n2C)nc1C (single isomer, unassigned) [Example 122 D2E2]: > 10 nM
3) Cc1nn(C)cc1C(c1ccccc1C#N)C(c1nc(C(=O)Nc2cnoc2)c(O)c(=O)n1C)C(F)(F)F (single isomer, unassigned) [Example 41 D1E2]: 1 to 10 nM
4) COCCn1ncc(C(c2cc(F)ccc2C#N)C(C)c2nc(C(=O)Nc3cnoc3)c(O)c(=O)n2C)c1C (single isomer, unassigned) [Example 104 D2E1]: > 10 nM
5) Cc1ncc(C(c2ccccc2C#N)C(C)c2nc(C(=O)Nc3cnoc3)c(O)c(=O)n2C)nc1C (single isomer, unassigned) [Example 81 D1E1]: > 10 nM

Q. Return value of IC50 for input Cc1n[nH]c(C)c1C(c1ccccc1C#N)C(C)c1nc(C(=O)Nc2cnoc2)c(O)c(=O)n1C (single isomer, unassigned) [Example 95 D1E1] , no commentary.
A. 1 to 10 nM

Q. Return value of IC50 for input COCCn1ncc(C(c2cc(F)ccc2C#N)C(C)c2nc(C(=O)Nc3cnoc3)c(O)c(=O)n2C)c1C (single isomer, unassigned) [Example 104 D1E1] , no commentary.
A. 1 to 10 nM

====

- MEASURED_TARGET: hTREX1 (Homo sapiens, UniProt Q9NSU2)
- Sequence (Q9NSU2 whole entry): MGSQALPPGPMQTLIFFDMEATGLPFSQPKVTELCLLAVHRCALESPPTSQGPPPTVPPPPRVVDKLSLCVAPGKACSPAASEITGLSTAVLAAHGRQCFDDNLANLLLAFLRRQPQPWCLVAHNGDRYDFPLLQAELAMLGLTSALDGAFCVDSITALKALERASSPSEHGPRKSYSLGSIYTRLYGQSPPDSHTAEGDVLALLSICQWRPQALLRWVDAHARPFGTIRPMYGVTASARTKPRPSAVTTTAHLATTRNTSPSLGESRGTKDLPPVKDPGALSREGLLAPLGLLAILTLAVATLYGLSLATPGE
- ASSAY: hTREX1 HCT116 Cell Assay (HCT116 dual cells, Lucia luciferase reporter of Type I interferon induction)
- PARTICULARS: TREX1i 4 h before pBR322/BstNI transfection, read after 48 h
- From the text: HCT116 dual cells (Invivogen, San Diego, CA, USA) are derived from the human HCT116 colorectal carcinoma cell line. Cells have been selected for the stable integration of SEAP and Luciferase reporter genes, which expression is under the control of 5 tandem response elements for NF-KB/AP1 and STAT1/STAT2, respectively. The cell line was used to monitor Type I interferon induction and subsequent signaling by measuring the activity of the Lucia luciferase secreted in the culture medium. […]
IC50: recorded values

Would you please look over these solved cases?
1) CC(c1nc(C(=O)Nc2cnoc2)c(O)c(=O)n1C)C(c1cnn(C)c1)c1cc(F)ccc1Cl (single isomer, unassigned): < 10 nM
2) CC(c1nc(C(=O)Nc2cnoc2)c(O)c(=O)n1C)C(c1nnn(C)n1)c1ccccc1C#N (single isomer, unassigned): > 100 nM

Q. Report the value of IC50 obtained on hTREX1 (Homo sapiens, UniProt Q9NSU2) for COCCn1cc(C(c2cc(F)ccc2C#N)C(C)c2nc(C(=O)Nc3cnoc3)c(O)c(=O)n2C)c(C)n1 (single isomer, unassigned) [Example 103 D1E2] .
A. 10 to 100 nM

====

pIC50: recorded values
- MEASURED_TARGET: full length mouse TREX1 (Mus musculus)
- Construct: N-terminally His-Tev tagged full length mouse TREX1; made in house; host or cells: E. coli
- ASSAY: mTREX1 Biochemical Assay (fluorescence, dsDNA substrate degradation)
- PARTICULARS: biochemical, read-out: mTREX1 IC50
- Experimental: Degradation of the dsDNA liberates free fluorophore to produce a fluorescent signal. Specifically, 7.5 μL of N-terminally His-Tev tagged full length mouse TREX1 (expressed in E. coli and purified in house) in reaction buffer (50 mM Tris, 150 mM NaCl, 2 mM DTT, 0.1 mg/mL BSA, 0.01% (w/v) Tween-20, 5 mM MgCl2, pH 7.4) was added to a 384-well Black ProxiPlate Plus (PerkinElmer) which already contained compound (150 nL) at varying concentrations as a 10 point dose-response in DMSO. […]
pIC50: −log10 of the molar value.

Would you please look over these solved cases?
1. CC(c1nc(C(=O)Nc2cnoc2)c(O)c(=O)n1C)C(c1cnn(CC(C)(C)O)c1)c1cc(F)ccc1Cl (single isomer, unassigned) [Example 92 D1E2]: < 8.00
2. CC(c1nc(C(=O)Nc2cnoc2)c(O)c(=O)n1C)C(c1ccccc1C#N)c1c[nH]nc1F (single isomer, unassigned) [Example 127 D1E1]: > 9.00
3. CC(c1nc(C(=O)Nc2cnoc2)c(O)c(=O)n1C)C(c1ccccc1C#N)c1cn(C)nc1F (single isomer, unassigned) [Example 91 D1E2]: < 8.00
4. Cc1ccc(C(c2ccccc2C#N)C(C)c2nc(C(=O)Nc3cnoc3)c(O)c(=O)n2C)cn1 (single isomer, unassigned) [Example 5 D2E2]: < 8.00
5. CC(c1nc(C(=O)Nc2cnoc2)c(O)c(=O)n1C)C(c1cocn1)c1ccccc1C#N (single isomer, unassigned) [Example 50 D2E2]: < 8.00

Pending molecule:
Q. Return value of pIC50 for input CCn1c(C(C)C(c2cnn(C)c2)c2ccccc2C#N)nc(C(=O)Nc2cnoc2)c(O)c1=O (single isomer, unassigned) [Example 149 D2E2] , no commentary.
A. < 8.00
